- MEASURED_ON: Gal3S(b1-4)Glc
- TEST_METHOD_NOTES: glycan array binding signal (z-score within array); higher = stronger binding
- STUDY_CONDITIONS: glycan notation: IUPAC condensed, linker removed
The sample as a whole holds a higher share of the strongest signals than the screen did.
// values below are reported glycan array binding signal (z-score)
RECORDED_METRIC: glycan array binding signal (z-score)

INSERT INTO results (binder, recorded_measurement) VALUES
  ('LngA (Escherichia coli) (protein) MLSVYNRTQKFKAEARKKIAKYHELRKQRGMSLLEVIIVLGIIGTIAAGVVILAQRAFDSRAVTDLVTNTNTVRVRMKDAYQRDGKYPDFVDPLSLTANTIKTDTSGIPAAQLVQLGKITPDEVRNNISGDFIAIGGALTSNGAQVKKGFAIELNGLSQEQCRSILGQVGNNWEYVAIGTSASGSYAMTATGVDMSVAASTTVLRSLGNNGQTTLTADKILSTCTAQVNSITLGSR', 4.16),
  ('EcCDA (Encephalitazoon cuniculi), Q8SU65 (protein) MLLCLLYFTSSWCSGSDVPDVCTNSGMIAINFVDGPVRGVTDRILNTLDELGVKATFSFTVNQKAVGNVGQLYRRAVEEGHNVALRVDPSMDEGYQCLSQDALENNVDREIDTIDGLSGTEIRYAAVPICNGQVNSEMYNILTERGVLPVGYTFCPYDYDDPVGEFESMIEGSDPKHHSFIILMHDGQEADTSRLENMVKIGKDKGYRFVNMDECLQGYKGAPGDPELSLRGKGVESIGKGFLPFFLMMLVRLL', 0.022),
  ('PGP3 (Chlamydia trachomatis), P0CE18 (protein) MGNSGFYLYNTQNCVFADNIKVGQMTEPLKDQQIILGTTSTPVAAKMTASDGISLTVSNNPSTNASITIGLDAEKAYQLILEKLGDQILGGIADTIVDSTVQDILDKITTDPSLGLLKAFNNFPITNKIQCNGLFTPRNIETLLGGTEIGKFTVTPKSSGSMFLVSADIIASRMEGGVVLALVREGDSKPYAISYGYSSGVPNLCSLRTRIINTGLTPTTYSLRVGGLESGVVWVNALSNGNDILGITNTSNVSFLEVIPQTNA', -0.636),
  ('Pwp6 (Candida glabrata) (protein) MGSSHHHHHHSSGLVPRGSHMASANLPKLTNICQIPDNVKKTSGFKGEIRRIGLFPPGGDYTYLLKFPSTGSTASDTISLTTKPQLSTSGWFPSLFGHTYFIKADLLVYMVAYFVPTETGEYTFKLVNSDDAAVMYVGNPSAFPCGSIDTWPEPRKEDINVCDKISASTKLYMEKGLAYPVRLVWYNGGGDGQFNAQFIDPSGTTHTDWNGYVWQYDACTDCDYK', -0.252),
  ('FliC (Clostridium difficile) (protein) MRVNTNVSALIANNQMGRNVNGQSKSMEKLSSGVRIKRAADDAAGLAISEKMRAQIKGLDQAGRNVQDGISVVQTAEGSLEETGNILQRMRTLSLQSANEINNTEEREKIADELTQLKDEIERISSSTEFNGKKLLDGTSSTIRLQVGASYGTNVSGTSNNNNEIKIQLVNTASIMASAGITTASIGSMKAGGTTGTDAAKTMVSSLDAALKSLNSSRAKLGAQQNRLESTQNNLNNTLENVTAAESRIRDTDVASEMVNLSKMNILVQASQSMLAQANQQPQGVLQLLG', -0.03);
